The reported measurements were obtained from BindingDB's records for doi:10.1021/jm00171a016.

# assay explanation: In vitro inhibitory activity against [3H]DTG binding to Sigma opioid receptor in guinea pig brain membrane homogenates
pIC50: −log10 of the molar value.

- compound: "Cc1cc([N+](=O)[O-])ccc1/N=C(/N)Nc1ccc([N+](=O)[O-])cc1C"
  pIC50: 6.12
- compound: "NC(=Nc1ccc(Br)cc1)Nc1ccc(Br)cc1"
  pIC50: 6.27
- compound: "Cc1ccccc1NC(N)=NC1CC2CCC1C2 (stereo not given)"
  pIC50: 8.22
- compound: "N=C(NCc1ccccc1)NCc1ccccc1"
  pIC50: 7.05
- compound: "Cc1cc([N+](=O)[O-])ccc1N=C(N)Nc1ccccc1C"
  pIC50: 7.43
- compound: "NC(=Nc1ccccc1I)NC12CC3CC(CC(C3)C1)C2"
  pIC50: 8.22
- compound: "Cc1ccccc1N=C(N)Nc1cccc(O)c1"
  pIC50: 6.68
- compound: "Cc1cc([N+](=O)[O-])ccc1NC(N)=Nc1cccc(O)c1"
  pIC50: 6.93
- compound: "Cc1ccccc1N=C(N)NC1CCCCC1"
  pIC50: 7.92
- compound: "NC(=NC1CC2CCC1C2)Nc1ccccc1I (stereo not given)"
  pIC50: 8.40
